MEASURED TARGET: T1, CXCL122 (constitutively dimeric CXCL12 variant, L36C/A65C) (Homo sapiens (Human), UniProt P48061 22-89, disulfide-locked dimer through the engineered cysteines)
T1 construct: it is described as a variant of CXCL12 containing L36C/A65C mutations; also called CXCL12 locked dimer; LD
T1 sequence (P48061 22-89 L57C/A86C limits assumed): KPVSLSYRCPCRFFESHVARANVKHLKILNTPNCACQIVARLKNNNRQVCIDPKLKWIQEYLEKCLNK
ASSAY NAME: NMR 1H-15N HSQC titration of peptide into 15N-labelled chemokine, chemical shift perturbations fitted to a quadratic binding equation, 298 K
Non-standard residues stand in square brackets, D forms with d. sY = N[C@@H](Cc1ccc(OS(=O)(=O)O)cc1)C(=O)O
READOUT KIND: pKd
One number for each entry, as −log10 of the molar value.

Sample answers from the record:
>  <BINDER>
GMMEGISIYTSDNYTEEMGSGDYDSMKEPAFREENANFNK (range 1-38; Unsulfated recombinant peptide; also called CXCR4 N-terminal domain; CXCR1-38) [CXCR41-38 (first 38 amino acids of CXCR4 preceded by a GlyMet dipeptide tag)]

>  <RECORDED MEASUREMENT>
6.05

$$$$
>  <BINDER>
Ac-SGD[sY]DSM-NH2 (SMILES CSCC[C@H](NC(=O)[C@H](CO)NC(=O)[C@H](CC(=O)O)NC(=O)[C@H](Cc1ccc(OS(=O)(=O)O)cc1)NC(=O)[C@H](CC(=O)O)NC(=O)CNC(=O)[C@H](CO)NC(C)=O)C(N)=O, Synthetic CXCR4 heptapeptide, residues 18-24; also called sulfated Tyr21 peptide) [18SGDsYDSM24 (sTyr21 sulfopeptide)]

>  <RECORDED MEASUREMENT>
3.68

$$$$

Query Ac-SGDYDSM-NH2 (Synthetic CXCR4 heptapeptide, residues 18-24; also called unsulfated Tyr21 peptide) [18SGDYDSM24 (Tyr21 peptide)] yields pKd of 3.08
